- System: TIE2 (Homo sapiens, UniProt Q02763)
- Construct: purchased DiscoverX (KINOMEscan)
- Sequence (Q02763 23-1124): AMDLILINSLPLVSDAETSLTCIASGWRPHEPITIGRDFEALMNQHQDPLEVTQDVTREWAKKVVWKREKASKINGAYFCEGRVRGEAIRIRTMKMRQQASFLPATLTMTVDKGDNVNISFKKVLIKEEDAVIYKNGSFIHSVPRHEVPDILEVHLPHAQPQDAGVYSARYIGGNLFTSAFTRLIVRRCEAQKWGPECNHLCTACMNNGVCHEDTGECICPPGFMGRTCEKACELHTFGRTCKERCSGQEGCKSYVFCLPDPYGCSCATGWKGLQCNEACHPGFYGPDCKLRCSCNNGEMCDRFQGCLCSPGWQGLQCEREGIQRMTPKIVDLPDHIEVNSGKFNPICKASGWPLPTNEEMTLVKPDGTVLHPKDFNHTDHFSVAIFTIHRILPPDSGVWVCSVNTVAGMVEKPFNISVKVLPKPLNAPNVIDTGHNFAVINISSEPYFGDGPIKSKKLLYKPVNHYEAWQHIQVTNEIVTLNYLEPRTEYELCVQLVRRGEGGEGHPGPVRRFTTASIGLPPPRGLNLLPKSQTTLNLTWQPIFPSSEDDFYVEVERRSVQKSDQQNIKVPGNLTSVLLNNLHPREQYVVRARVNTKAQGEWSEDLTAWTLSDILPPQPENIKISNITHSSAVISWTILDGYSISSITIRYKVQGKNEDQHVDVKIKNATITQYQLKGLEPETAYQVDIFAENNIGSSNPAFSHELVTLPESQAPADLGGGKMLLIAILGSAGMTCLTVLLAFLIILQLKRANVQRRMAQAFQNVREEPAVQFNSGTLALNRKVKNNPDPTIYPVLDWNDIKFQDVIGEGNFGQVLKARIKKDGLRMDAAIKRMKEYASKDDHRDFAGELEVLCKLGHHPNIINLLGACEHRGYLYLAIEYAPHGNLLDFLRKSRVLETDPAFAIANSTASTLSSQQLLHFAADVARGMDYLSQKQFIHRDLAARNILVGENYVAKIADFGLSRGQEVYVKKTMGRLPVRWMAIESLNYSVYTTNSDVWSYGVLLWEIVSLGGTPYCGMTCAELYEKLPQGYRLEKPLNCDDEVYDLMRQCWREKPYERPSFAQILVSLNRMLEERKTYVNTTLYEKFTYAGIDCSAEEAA
- Protocol: KINOMEscan competitive binding
- Measurement conditions: n=1, read-out: Percent inhibition, TIE2
Value type: inhibition at 10 µM (%)

1. Cc1ccc(O)cc1Nc1ccnc(Nc2cccc(C(N)=O)c2)n1: 97.5
2. C[C@@H](Oc1cc(-c2cnc3ccccn23)sc1C(N)=O)c1ccccc1Cl: 0
3. Fc1cccc(COc2ccc(Nc3ncnc4c3CN(CCN3CCOCC3)CC4)cc2Cl)c1: 0
4. Cc1ccc(O)cc1N(C)c1ccnc(Nc2cccc(S(N)(=O)=O)c2)n1: 100
5. c1ccc(COc2cccc(-c3ccnc4[nH]ccc34)c2)cc1: 0
6. Nc1ncc2c(-c3ccncc3)c[nH]c2n1: 0
7. COc1ccc(Nc2nccc(-c3cnn4ncccc34)n2)cc1: 0
8. COc1cc(Nc2nccc(-c3sc(N)nc3-c3cccc(NC(=O)c4c(F)cccc4F)c3)n2)cc(OC)c1OC: 100
9. Clc1ccc(Nc2ncc(-c3ccccc3)s2)cc1: 0
10. CN1CCN(c2ccc(Nc3nccc(-c4cnn5ncccc45)n3)cc2C#N)CC1: 0

====

Reported inhibition at 10 µM is given for each of the following molecules.
- System: panel of 203 kinases (Homo sapiens, UniProt Q9UQB9)
- Construct: purchased DiscoverX (KINOMEscan)
- Sequence (Q9UQB9 whole entry): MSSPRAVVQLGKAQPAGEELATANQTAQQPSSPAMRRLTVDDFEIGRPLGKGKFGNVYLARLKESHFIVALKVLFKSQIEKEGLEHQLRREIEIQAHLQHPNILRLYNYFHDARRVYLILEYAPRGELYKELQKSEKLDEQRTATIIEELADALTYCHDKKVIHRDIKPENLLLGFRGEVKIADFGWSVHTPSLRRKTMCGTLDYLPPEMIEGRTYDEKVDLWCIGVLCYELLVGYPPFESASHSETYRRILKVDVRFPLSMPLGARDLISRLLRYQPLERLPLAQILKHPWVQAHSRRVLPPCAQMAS
- Protocol: KINOMEscan competitive binding, whole panel
- Measurement conditions: 10 µM, n=1; kinase AURKC; read-out: Percent inhibition AURKC
Value type: inhibition at 10 µM (%)

1) Cc1ccc(O)cc1Nc1ccnc(Nc2cccc(C(N)=O)c2)n1 [Compound 3]: 0
2) Clc1ccc(Nc2ncc(-c3ccccc3)s2)cc1 [Compound 10]: 0
3) C[C@@H](Oc1cc(-c2cnc3ccccn23)sc1C(N)=O)c1ccccc1Cl [Compound 8]: 96
4) CN1CCN(c2ccc(Nc3nccc(-c4cnn5ncccc45)n3)cc2C#N)CC1 [Compound 1]: 96.5
5) c1ccc(COc2cccc(-c3ccnc4[nH]ccc34)c2)cc1 [Compound 9]: 0
6) Nc1ncc2c(-c3ccncc3)c[nH]c2n1 [Compound 11]: 0
7) COc1cc(Nc2nccc(-c3sc(N)nc3-c3cccc(NC(=O)c4c(F)cccc4F)c3)n2)cc(OC)c1OC [Compound 7]: 85.7
8) COc1ccc(Nc2nccc(-c3cnn4ncccc34)n2)cc1 [Compound 2]: 91.1
9) Cc1ccc(O)cc1N(C)c1ccnc(Nc2cccc(S(N)(=O)=O)c2)n1 [Compound 4]: 0
10) Fc1cccc(COc2ccc(Nc3ncnc4c3CN(CCN3CCOCC3)CC4)cc2Cl)c1 [Compound 6]: 0

====

- System: panel of 203 kinases (Homo sapiens, UniProt Q16584)
- Construct: purchased DiscoverX (KINOMEscan)
- Sequence (Q16584 whole entry): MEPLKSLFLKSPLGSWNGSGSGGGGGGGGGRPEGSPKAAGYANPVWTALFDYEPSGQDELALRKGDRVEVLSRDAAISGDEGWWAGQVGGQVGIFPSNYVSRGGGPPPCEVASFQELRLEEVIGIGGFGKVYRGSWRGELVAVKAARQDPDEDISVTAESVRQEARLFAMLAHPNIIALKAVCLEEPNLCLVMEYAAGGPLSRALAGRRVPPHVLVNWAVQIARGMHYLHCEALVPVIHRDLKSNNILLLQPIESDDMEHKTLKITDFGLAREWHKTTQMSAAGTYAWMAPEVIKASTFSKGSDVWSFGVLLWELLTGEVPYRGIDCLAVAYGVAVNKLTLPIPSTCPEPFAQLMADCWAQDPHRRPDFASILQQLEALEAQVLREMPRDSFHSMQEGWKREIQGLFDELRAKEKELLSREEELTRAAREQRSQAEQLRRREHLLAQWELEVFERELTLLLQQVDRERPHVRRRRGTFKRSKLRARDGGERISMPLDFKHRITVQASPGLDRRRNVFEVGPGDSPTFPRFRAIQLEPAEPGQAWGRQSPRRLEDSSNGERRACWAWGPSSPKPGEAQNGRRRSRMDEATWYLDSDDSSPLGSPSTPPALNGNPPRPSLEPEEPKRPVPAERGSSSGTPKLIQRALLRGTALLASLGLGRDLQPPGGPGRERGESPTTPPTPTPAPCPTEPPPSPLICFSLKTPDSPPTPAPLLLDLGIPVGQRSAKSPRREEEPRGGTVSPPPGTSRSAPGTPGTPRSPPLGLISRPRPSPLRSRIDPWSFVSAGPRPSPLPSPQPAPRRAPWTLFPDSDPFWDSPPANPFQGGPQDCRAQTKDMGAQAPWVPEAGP
- Protocol: KINOMEscan competitive binding, whole panel
- Measurement conditions: 10 µM, n=1; kinase MLK3; read-out: Percent inhibition MLK3
Value type: inhibition at 10 µM

1) COc1ccc(Nc2nccc(-c3cnn4ncccc34)n2)cc1 [Compound 2]: 75.5%
2) Fc1cccc(COc2ccc(Nc3ncnc4c3CN(CCN3CCOCC3)CC4)cc2Cl)c1 [Compound 6]: 0%
3) Nc1ncc2c(-c3ccncc3)c[nH]c2n1 [Compound 11]: 82.8%
4) COc1cc(Nc2nccc(-c3sc(N)nc3-c3cccc(NC(=O)c4c(F)cccc4F)c3)n2)cc(OC)c1OC [Compound 7]: 99.8%
5) Clc1ccc(Nc2ncc(-c3ccccc3)s2)cc1 [Compound 10]: 0%
